The measured values listed here are drawn from patent US20230391796A1.

- tested.system: β-N-acetylglucosaminidase (from jack bean)
- protocol.description: Inhibition assay against commercial β-N-acetylglucosaminidase (jack bean), p-nitrophenyl N-acetyl-β-D-glucosaminide substrate
- setup.conditions: pH 5.5, 37° C.; average of three determinations ± s.e.m.; NI = no inhibition detected at 200 μM; read-out: Jack beans Hex
Structures can show the parent of a compound that is named as a salt.
endpoint.label: Ki (µM)

- compound: "CC(=O)N[C@H]1CN2/C(=N/Cc3cccc(CN=[N+]=[N-])c3)SC[C@@H]2[C@@H](O)[C@@H]1O [Compound 10, Hydrochloride]"
  unit.spec: "µM"
  Ki: 3.13
- compound: "CC(=O)N[C@H]1CN2/C(=N/CCc3ccccc3)SC[C@@H]2[C@@H](O)[C@@H]1O [Compound 12, Hydrochloride]"
  unit.spec: "µM"
  Ki: 2.45
- compound: "CC(=O)N[C@H]1CN2/C(=N/c3ccccc3)SC[C@@H]2[C@@H](O)[C@@H]1O [Compound 3, Hydrochloride]"
  unit.spec: "µM"
  Ki: 2.8
- compound: "CC(=O)N[C@H]1CN2/C(=N/Cc3cccc4ccccc34)SC[C@@H]2[C@@H](O)[C@@H]1O [Compound 5, Hydrochloride]"
  unit.spec: "µM"
  Ki: 2.4
- compound: "CCCCN=C1SCC2C(O)C(O)C(NC(C)=O)CN12 (centres unmarked) [Compound 1, Hydrochloride]"
  unit.spec: "µM"
  Ki: 0.85
- compound: "CCCCCCCCN=C1SCC2C(O)C(O)C(NC(C)=O)CN12 (centres unmarked) [Compound 2, Hydrochloride]"
  unit.spec: "µM"
  Ki: 1.3

P. CC(=O)N[C@H]1CN2/C(=N/Cc3ccc(C(F)(F)F)cc3)SC[C@@H]2[C@@H](O)[C@@H]1O [Compound 8, hydrochloride]
Q. CC(=O)N[C@H]1CN2/C(=N/Cc3ccccc3)SC[C@@H]2[C@@H](O)[C@@H]1O [Compound 4, Hydrochloride]
R. COc1ccc(C/N=C2\SC[C@@H]3[C@@H](O)[C@H](O)[C@@H](NC(C)=O)CN23)cc1 [Compound 7, Hydrochloride]
S. CC(=O)N[C@H]1CN2/C(=N/Cc3ccc(F)cc3)SC[C@@H]2[C@@H](O)[C@@H]1O [Compound 6, Hydrochloride]
Task: Could you please sort these 4 entries by Ki from high to low? Give me the labels in the order the question wants.
Output: S, R, P, Q
(S: 3.2 µM, R: 2.2 µM, P: 1.5 µM, Q: 0.75 µM)
